target-system: methionine aminopeptidase 2 (LdMAP2) (Leishmania donovani)
Sequence (A0A3S7WWI2 entry or part of it): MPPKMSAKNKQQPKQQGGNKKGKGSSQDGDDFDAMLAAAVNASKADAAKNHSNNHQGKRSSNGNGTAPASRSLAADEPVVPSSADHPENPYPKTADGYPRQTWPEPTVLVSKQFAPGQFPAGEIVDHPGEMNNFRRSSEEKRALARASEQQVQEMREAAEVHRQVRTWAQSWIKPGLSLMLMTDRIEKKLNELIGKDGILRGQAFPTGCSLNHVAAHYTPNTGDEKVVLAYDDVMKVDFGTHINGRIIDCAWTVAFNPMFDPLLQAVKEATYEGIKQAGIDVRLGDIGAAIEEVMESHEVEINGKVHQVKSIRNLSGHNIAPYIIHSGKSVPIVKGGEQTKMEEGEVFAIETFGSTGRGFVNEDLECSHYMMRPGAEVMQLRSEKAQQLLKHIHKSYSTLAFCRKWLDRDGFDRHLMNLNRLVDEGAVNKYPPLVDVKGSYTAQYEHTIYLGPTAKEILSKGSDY
pKi: −log10 of the molar value.
quantity-name: pKi

INSERT INTO assay_data (compound, result_number) VALUES
  ('CO[C@@H]1[C@H](OC(=O)NC(=O)CCl)CC[C@]2(CO2)[C@H]1[C@@]1(C)O[C@@H]1CC=C(C)C [TNP-470]', 7.87);
